Measured values drawn from paper PMC12133982 for this set.

molecular target: HLA-C0401 (Homo sapiens, UniProt P10321, A176E/A330V/A35S/A73E/C25G/C350S/D138N/D33S/E299K/L171W/L180R/L218V/M285V/M309V/M331V/N104K/P208H/Q277E/Q291P/R243W/R38W/S101N/S123F/S140F/S297R/S48A/T329A/T363A/V319A/V327M); assay: Competitive peptide binding assay, CIR-C0401; conditions: HMy2.CIR-C0401 cells, reference Cy5-[…], class from inhibition at 5 and 15 μM, flow cytometry MFI; read-out: Binding affinity with HLA-C0401
pIC50: −log10 of the molar value. Peptide text beside a SMILES is read from it.
ENDPOINT: pIC50

Example entries begin here.
* CSCC[C@H](NC(=O)[C@H](C)NC(=O)[C@@H]1CCCN1C(=O)[C@H](CC(=O)O)NC(=O)[C@H](C)NC(=O)[C@H](C)NC(=O)[C@H](Cc1ccc(O)cc1)NC(=O)[C@@H](NC(=O)[C@@H](N)CC(C)C)C(C)C)C(=O)O [Epitope M58] (H-LVYAADPAM-OH; N-terminus and C-terminus assumed) | < 4.82
* CC[C@H](C)[C@H](NC(=O)[C@@H]1CCCN1C(=O)[C@@H](NC(=O)[C@H](Cc1c[nH]cn1)NC(=O)[C@H](CCCCN)NC(=O)[C@H](CO)NC(=O)[C@H](Cc1ccc(O)cc1)NC(=O)[C@@H](NC(=O)[C@@H](N)CCCCN)[C@@H](C)CC)[C@@H](C)O)C(=O)O [Epitope M34] (H-KIYSKHTPI-OH; N-terminus and C-terminus assumed) | 4.82 to 5.30
* CSCC[C@H](NC(=O)[C@H](C)NC(=O)[C@@H](N)Cc1ccccc1)C(=O)N[C@@H](CCC(N)=O)C(=O)N[C@@H](CCSC)C(=O)N[C@@H](C)C(=O)N[C@@H](Cc1ccc(O)cc1)C(=O)N[C@@H](CCCNC(=N)N)C(=O)N[C@@H](Cc1ccccc1)C(=O)O [Epitope M63] | < 4.82
* CC(C)[C@H](NC(=O)[C@H](CC(N)=O)NC(=O)[C@H](Cc1ccc(O)cc1)NC(=O)[C@H](C)NC(=O)[C@@H](N)CCCCN)C(=O)N[C@H](C(=O)N[C@@H](CCC(N)=O)C(=O)N[C@@H](C)C(=O)N[C@@H](Cc1ccccc1)C(=O)O)[C@@H](C)O [Epitope M11] (H-KAYNVTQAF-OH) | < 4.82
* CC[C@H](C)[C@H](NC(=O)[C@H](CC(N)=O)NC(=O)[C@H](CC(=O)O)NC(=O)[C@H](CO)NC(=O)[C@H](CO)NC(=O)[C@@H](N)CO)C(=O)N[C@@H](C)C(=O)N[C@@H](CC(C)C)C(=O)N[C@@H](CC(C)C)C(=O)O [Epitope M111] (H-SSSDNIALL-OH; N-terminus and C-terminus assumed) | > 5.30
* CC[C@H](C)[C@H](NC(=O)[C@H](CCCNC(=N)N)NC(=O)[C@H](CC(C)C)NC(=O)[C@H](CCSC)NC(=O)[C@H](CC(N)=O)NC(=O)[C@@H]1CCCN1C(=O)[C@H](CCSC)NC(=O)[C@H](C)NC(=O)[C@@H](N)CCCNC(=N)N)C(=O)O [Epitope M30] (H-RAMPNMLRI-OH; N-terminus and C-terminus assumed) | < 4.82
* C[C@H](NC(=O)[C@H](CO)NC(=O)[C@H](C)NC(=O)[C@H](CO)NC(=O)[C@@H]1CCCN1C(=O)[C@H](C)NC(=O)[C@@H](N)Cc1ccccc1)C(=O)N[C@@H](Cc1ccccc1)C(=O)N[C@@H](Cc1ccccc1)C(=O)O [Epitope M16] (H-FAPSASAFF-OH; N-terminus and C-terminus assumed) | 4.82 to 5.30
* CC[C@H](C)[C@H](NC(=O)[C@@H](NC(=O)[C@@H](N)CO)[C@@H](C)CC)C(=O)N[C@@H](C)C(=O)N[C@@H](Cc1ccc(O)cc1)C(=O)N[C@H](C(=O)N[C@@H](CCSC)C(=O)N[C@@H](CO)C(=O)N[C@@H](CC(C)C)C(=O)O)[C@@H](C)O [Epitope M86] (H-SIIAYTMSL-OH; N-terminus and C-terminus assumed) | 4.82 to 5.30
* CC[C@H](C)[C@H](N)C(=O)N[C@H](C(=O)N[C@@H](CC(N)=O)C(=O)N[C@@H](CO)C(=O)N[C@H](C(=O)N[C@@H](CC(C)C)C(=O)N[C@@H](CC(C)C)C(=O)N[C@@H](Cc1ccccc1)C(=O)N[C@@H](CC(C)C)C(=O)O)C(C)C)C(C)C [Epitope M7] (H-IVNSVLLFL-OH; N-terminus and C-terminus assumed) | 4.82 to 5.30
* CC(C)[C@H](NC(=O)CNC(=O)[C@H](Cc1c[nH]cn1)NC(=O)[C@@H]1CCCN1C(=O)[C@H](C)NC(=O)[C@H](CO)NC(=O)[C@@H](N)CCC(N)=O)C(=O)N[C@H](C(=O)N[C@@H](Cc1ccccc1)C(=O)O)C(C)C [Epitope M69] (H-QSAPHGVVF-OH; N-terminus and C-terminus assumed) | < 4.82

Item C[C@H](NC(=O)[C@H](Cc1ccc(O)cc1)NC(=O)[C@H](C)NC(=O)[C@@H](N)Cc1ccccc1)C(=O)N[C@@H](CC(N)=O)C(=O)N[C@@H](CCCNC(=N)N)C(=O)N[C@@H](CC(N)=O)C(=O)N[C@@H](CCCNC(=N)N)C(=O)N[C@@H](Cc1ccccc1)C(=O)O [Epitope M43] (H-FAYANRNRF-OH; N-terminus and C-terminus assumed) has what recorded pIC50?
< 4.82

And the next one, CSCC[C@H](NC(=O)[C@H](CO)NC(=O)[C@H](CCCNC(=N)N)NC(=O)[C@@H](NC(=O)[C@H](CCCNC(=N)N)NC(=O)[C@H](C)NC(=O)[C@@H](N)Cc1ccccc1)[C@@H](C)O)C(=O)N[C@@H](Cc1c[nH]c2ccccc12)C(=O)N[C@@H](CO)C(=O)N[C@@H](Cc1ccccc1)C(=O)O [Epitope M71] (H-FARTRSMWSF-OH; N-terminus and C-terminus assumed) ?
< 4.82
